Target: human TLR9 (Homo sapiens, UniProt Q9NR96)
Sequence (Q9NR96 26-1032): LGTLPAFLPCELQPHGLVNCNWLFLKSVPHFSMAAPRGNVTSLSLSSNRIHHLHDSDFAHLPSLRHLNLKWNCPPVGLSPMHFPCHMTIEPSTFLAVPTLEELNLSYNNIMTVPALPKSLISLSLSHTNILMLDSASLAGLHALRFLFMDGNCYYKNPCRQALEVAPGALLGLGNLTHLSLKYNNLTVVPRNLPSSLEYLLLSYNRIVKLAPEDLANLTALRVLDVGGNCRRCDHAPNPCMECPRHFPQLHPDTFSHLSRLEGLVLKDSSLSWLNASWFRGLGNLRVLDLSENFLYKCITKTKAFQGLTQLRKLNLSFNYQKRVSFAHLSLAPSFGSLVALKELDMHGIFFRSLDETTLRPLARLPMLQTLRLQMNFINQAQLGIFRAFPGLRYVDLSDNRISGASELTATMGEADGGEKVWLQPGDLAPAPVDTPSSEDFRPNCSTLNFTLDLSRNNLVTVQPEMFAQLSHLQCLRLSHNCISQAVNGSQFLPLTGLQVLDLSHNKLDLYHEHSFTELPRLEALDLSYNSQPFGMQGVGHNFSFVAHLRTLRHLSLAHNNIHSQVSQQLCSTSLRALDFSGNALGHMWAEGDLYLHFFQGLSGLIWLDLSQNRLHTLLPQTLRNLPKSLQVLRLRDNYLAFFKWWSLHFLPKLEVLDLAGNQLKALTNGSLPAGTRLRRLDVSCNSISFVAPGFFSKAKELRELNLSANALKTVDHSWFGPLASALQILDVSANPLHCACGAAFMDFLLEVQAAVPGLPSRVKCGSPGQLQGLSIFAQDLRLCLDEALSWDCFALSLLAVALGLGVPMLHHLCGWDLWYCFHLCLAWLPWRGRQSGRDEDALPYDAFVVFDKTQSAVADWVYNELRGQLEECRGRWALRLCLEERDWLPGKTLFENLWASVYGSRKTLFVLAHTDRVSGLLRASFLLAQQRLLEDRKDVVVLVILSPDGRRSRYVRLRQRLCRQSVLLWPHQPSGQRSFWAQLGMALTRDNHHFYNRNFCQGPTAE
Experiment: TLR9 inhibition reporter assay (HEK-Blue cells, SEAP reporter, ODN2006 stimulation)
Settings: HEK-Blue cells overexpressing human TLR9, SEAP reporter, ODN2006 5 nM
pIC50: −log10 of the molar value.
OUTCOME MEASURE: pIC50

Would you please look over these solved cases?
MOLECULE	OUTCOME MEASURE	RESULT NUMBER
Cc1cc(-c2[nH]c3sc(C4CCN(CC(=O)N(C)C)CC4)nc3c2C(C)C)cn2ncnc12 [Example 17]	pIC50	5.46
COc1cc(-c2[nH]c3sc(C4CCC(N5CCC6(CCNC6)C5)CC4)nc3c2C(C)C)cn2ncnc12 (single isomer, unassigned) [Example 115]	pIC50	5.92

(a) CCc1c(-c2cc(OC)c3ncnn3c2)[nH]c2sc(C3CCC(N4CC5(COC5)C4)CC3)nc12 (single isomer, unassigned) [Example 269]
(b) COc1cc(-c2[nH]c3sc(C4CCC(N)CC4)nc3c2C(C)C)cn2ncnc12 (single isomer, unassigned) [Example 93]
INPUT: Select the item with the higher value of pIC50 from the options a and b listed. Kindly give the label for the entry you pick.
OUTPUT: a
(a: 5.20, b: 4.92)
